Here's a roundup of IC50 values tested on UniProt P78356, taken from various published works.

CNC(=O)c1cccc2ncc(Nc3ccc(-c4ccc(N5CCCC5=O)cc4)cn3)cc12; 10 to 100 nM

# value of IC50, UniProt P78356, item CN(CC1CCCNC1)C(=O)c1ccc(-c2cncc(-c3ccncc3)c2)cc1 (centres unmarked) = > 5000 nM

# value of IC50, UniProt P78356, item O=C(NCc1cccc2c1B(O)OC2)c1cc2c(-c3cncc(-c4ccc(N5CCCC5=O)cc4)c3)ccnc2[nH]1 = 10 to 100 nM

# value of IC50, UniProt P78356, item CN(C)C(=O)c1ccc(-c2cc(-c3ccnc(CNC(=O)CCc4cccc(N)c4)c3)cnc2N)nc1 = 2500 to 5000 nM

# value of IC50, UniProt P78356, item CN1CCN(c2cncc(Nc3cc4c(cn3)-c3ccc(N5CCCC5=O)cc3OC4(C)C)c2)S1(=O)=O = 10 to 100 nM

# value of IC50, UniProt P78356, item O=C1CCCN1c1ccc(-c2ccc(Nc3cnc4c(c3)N3C(=O)CC[C@H]3CO4)nc2)cc1F = 10 to 100 nM

# value of IC50, UniProt P78356, item CN(C)C(=O)c1ccc(-c2cncc(-c3cnc4c(ccn4C)c3)c2)cc1 = > 5000 nM

# value of IC50, UniProt P78356, item CC(C)n1cnnc1-c1ccc(-c2cncc(-c3ccnc4c3cc3n4CCN(C)C3=O)c2)cc1 = 10 to 100 nM

# value of IC50, UniProt P78356, item CN(C)C(=O)c1ccc(-c2cc(-c3ccnc4[nH]c(C(=O)N5CCNCC5)cc34)cnc2N)nc1 = 100 to 1000 nM

# value of IC50, UniProt P78356, item CN1CCn2c(cc3c(-c4cncc(-c5ccc(C(=O)N6C7CCC6CC7)cc5)c4)ccnc32)C1=O = 100 to 1000 nM

# value of IC50, UniProt P78356, item CN(C)C(=O)c1cccc2ncc(Nc3ccc(-c4ccc(N5CCCC5=O)cc4)cn3)cc12 = > 1000 nM

###

Here's a roundup of IC50 values tested on PIP4K2B (Homo sapiens, UniProt P78356), taken from various published works.
Sequence (P78356 whole entry, species assumed): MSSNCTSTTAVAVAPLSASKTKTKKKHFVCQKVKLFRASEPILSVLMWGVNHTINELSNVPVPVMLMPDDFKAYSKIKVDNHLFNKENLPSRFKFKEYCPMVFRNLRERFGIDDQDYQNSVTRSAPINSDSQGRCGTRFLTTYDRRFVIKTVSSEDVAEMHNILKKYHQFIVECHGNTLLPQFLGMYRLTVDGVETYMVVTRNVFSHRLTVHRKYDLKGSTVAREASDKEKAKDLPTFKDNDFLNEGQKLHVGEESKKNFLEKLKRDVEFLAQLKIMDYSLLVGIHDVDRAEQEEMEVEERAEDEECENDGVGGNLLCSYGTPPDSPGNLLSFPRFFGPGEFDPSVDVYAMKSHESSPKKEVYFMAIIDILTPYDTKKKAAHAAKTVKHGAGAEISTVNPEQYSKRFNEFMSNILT

Some solved entries appear below for comparison.
Cn1ncc2c(-c3cnc(N)c(-c4ccc(N5CCCC5=O)cc4)c3)cn(CC3CCOCC3)c(=O)c21; 10 to 100 nM
CC1Oc2cc(N3CCCC3=O)ccc2-c2cnc(Nc3cncc(NC(=O)c4ccc5c(c4)OCO5)c3)cc21 (stereo not drawn); 10 to 100 nM

// sample O=C(NCc1ccc2c(c1)COB2O)c1cc2c(-c3cncc(-c4ccc(N5CCCC5=O)cc4)c3)ccnc2[nH]1 , its IC50 was 10 to 100 nM

// sample CN(C)C/C=C/C(=O)NCCCCCC(=O)Nc1cccc(CCC(=O)Nc2cncc(Nc3ccc(-c4ccc(C(=O)N(C)C)cc4)cn3)c2)c1 , its IC50 was > 1000 nM

// sample C[C@H](O)c1cnc2c(c1)c(-c1cncc(-c3ccc(N4CCCC4=O)cc3)c1)cn2C , its IC50 was 100 to 1000 nM

// sample CCOc1ccc(C(=O)Nc2cncc(Nc3ccc(-c4ccc(N5CCCC5=O)cc4)cn3)c2)cn1 , its IC50 was 10 to 100 nM

// sample COC(=O)N1CCOc2ncc(Nc3cc4c(cn3)-c3cc(F)c(N5CCCC5=O)cc3OC4C)cc21 (stereo not drawn) , its IC50 was 1 to 10 nM

// sample CC(C)S(=O)(=O)N1CCOc2ncc(Nc3ccc(-c4ccc(N5CCCC5=O)cc4)cn3)cc21 , its IC50 was 10 to 100 nM

// sample COC(=O)Nc1cncc(Nc2cc3c(cn2)-c2ccc(N4CCCC4=O)cc2OC3C)c1 (stereo not drawn) , its IC50 was 10 to 100 nM

// sample CN(C)C(=O)c1ccc(-c2ccc(Nc3ccc(CCN4CCOCC4)nc3)nc2)cc1 , its IC50 was > 1000 nM

// sample COCCC(=O)N1CCN(c2cncc(Nc3cc4c(cn3)-c3cc(F)c(N5CCCC5=O)cc3OC4C)c2)CC1 (stereo not drawn) , its IC50 was 10 to 100 nM

// sample CC1Oc2cc(C(=O)N(C)C)ccc2-c2cnc(Nc3cccnc3)cc21 (stereo not drawn) , its IC50 was 100 to 1000 nM

// sample CC(=O)N1CCOc2ncc(Nc3cc4c(cn3)-c3ccc(N5CCCC5=O)cc3OC4C)cc21 (stereo not drawn) , its IC50 was 10 to 100 nM

// sample CN(C)C/C=C/C(=O)Nc1cccc(CCC(=O)Nc2ccc(CN3CCN(c4cncc(Nc5ccc(-c6ccc(C(=O)N(C)C)cc6)cn5)c4)C3=O)cc2)c1 , its IC50 was 10 to 100 nM

// sample CC1Oc2cc(N3CCCC3=O)ccc2-c2cnc(Nc3cncc(NC(=O)CCc4ccccc4)c3)cc21 (stereo not drawn) , its IC50 was 10 to 100 nM

###

Here's a roundup of IC50 values tested on PIP4K2B (Homo sapiens), taken from various published works.

Some solved entries appear below for comparison.
O=C(NC1COC1)c1cc2c(-c3cncc(-c4ccc(N5CCCC5=O)cc4)c3)ccnc2o1; 100 to 1000 nM
Cc1cc(N2CCCC2=O)ccc1-c1ccc(Nc2cnc3c(c2)N2C(=O)C4(CC4)C[C@H]2CO3)nc1; 10 to 100 nM
COc1ncc(Nc2ccc(-c3ccc(N4CCCC4=O)cc3)cn2)cc1N(C)S(C)(=O)=O; 10 to 100 nM
O=C1CCCN1c1ccc(-c2cncc(-c3ccnc4c3OCCO4)c2)cc1; 1000 to 2500 nM
O=C1CCCN1c1ccc2c(c1)OCc1cc(Nc3cncc(N4CCNC4=O)c3)ncc1-2; 10 to 100 nM
CN(C)CCCC(=O)Nc1cccc(CCC(=O)Nc2cncc(Nc3ccc(-c4ccc(N5CCCC5=O)cc4)cn3)c2)c1; 10 to 100 nM

# value of IC50, PIP4K2B (Homo sapiens), item O=C1CCCN1c1ccc(-c2cncc(-n3ccc4ncccc43)c2)cc1 = 100 to 1000 nM

# value of IC50, PIP4K2B (Homo sapiens), item Cc1c[nH]c2nccc(-c3cc(-c4ccc(N5CCCC5=O)cc4)cnc3N)c12 = 10 to 100 nM

# value of IC50, PIP4K2B (Homo sapiens), item CC(C)c1cc(Nc2cnc3c(c2)N2C(=O)CC[C@H]2CO3)ncc1-c1ccc(N2CCCC2=O)cc1 = 1 to 10 nM

# value of IC50, PIP4K2B (Homo sapiens), item CC(C)c1cc(Nc2cnc3c(c2)N2C(=O)CC[C@H]2CO3)ncc1-c1ccc(N2CCCC2=O)c(F)c1 = 10 to 100 nM

# value of IC50, PIP4K2B (Homo sapiens), item CC(C)n1cnnc1-c1ccc(-c2cncc(-c3ccnc4[nH]c(C(=O)NCc5ccccc5)cc34)c2)cc1 = 10 to 100 nM

# value of IC50, PIP4K2B (Homo sapiens), item CS(=O)(=O)N1CCOc2ncc(Nc3ccc(-c4ccc(N5CCCC5=O)cc4)cn3)cc21 = 10 to 100 nM

# value of IC50, PIP4K2B (Homo sapiens), item CN(C)C(=O)c1cc2c(-c3cncc(-c4ccc(N5CCCC5=O)cc4)c3)ccnc2o1 = 10 to 100 nM

# value of IC50, PIP4K2B (Homo sapiens), item CS(=O)(=O)N1Cc2nccc(-c3cncc(-c4ccc(N5CCCC5=O)cc4)c3)c2C1 = > 5000 nM

# value of IC50, PIP4K2B (Homo sapiens), item COc1nc(Nc2cnc3c(c2)N2C(=O)CC[C@H]2CO3)ncc1-c1ccc(N2CCCC2=O)cc1 = 1 to 10 nM

# value of IC50, PIP4K2B (Homo sapiens), item CN(C)C(=O)c1ccc(-c2ccc(Nc3ccc(N4CCOCC4)nc3)nc2)cc1 = > 1000 nM

###

pIC50: −log10 of the molar value.
Here's a roundup of pIC50 values tested on PIP4K2B (Homo sapiens, UniProt P78356), taken from various published works.

CNC(=O)c1cc2c(-c3cncc(-c4ccc(N5CCCC5=O)cc4)c3)ccnc2[nH]1; 7.00 to 8.00
COCCC(=O)N1CCN(c2cncc(Nc3cc4c(cn3)-c3cc(F)c(N5CCCC5=O)cc3OC4)c2)CC1; 7.00 to 8.00
C[C@@H]1CCC(=O)N1c1ccc(-c2cncc(-c3ccnc4c3cc3n4CCN(C)C3=O)c2)cc1; 8.00 to 9.00
COc1ncc(Nc2cc3c(cn2)-c2ccc(N4CCCC4=O)cc2OC3C)cc1N(C)C(C)=O (stereo not shown); < 6.00
O=C(Nc1cncc(Nc2ccc(-c3ccc(N4CCCC4=O)cc3)cn2)c1)c1ccc(=O)[nH]c1; 7.00 to 8.00

// sample CN(C)C(=O)c1ccc(-c2cc(-c3cnc4c(c3)c(-c3cncnc3)nn4C)cnc2N)nc1 , its pIC50 was < 5.30
